Target: human CGRP receptor (human CRLR / human RAMP1 heterodimer) (human, UniProt Q16602 23-461; O60894 27-148)
Sequence (Q16602 23-461 limits assumed, chain 1 of 2): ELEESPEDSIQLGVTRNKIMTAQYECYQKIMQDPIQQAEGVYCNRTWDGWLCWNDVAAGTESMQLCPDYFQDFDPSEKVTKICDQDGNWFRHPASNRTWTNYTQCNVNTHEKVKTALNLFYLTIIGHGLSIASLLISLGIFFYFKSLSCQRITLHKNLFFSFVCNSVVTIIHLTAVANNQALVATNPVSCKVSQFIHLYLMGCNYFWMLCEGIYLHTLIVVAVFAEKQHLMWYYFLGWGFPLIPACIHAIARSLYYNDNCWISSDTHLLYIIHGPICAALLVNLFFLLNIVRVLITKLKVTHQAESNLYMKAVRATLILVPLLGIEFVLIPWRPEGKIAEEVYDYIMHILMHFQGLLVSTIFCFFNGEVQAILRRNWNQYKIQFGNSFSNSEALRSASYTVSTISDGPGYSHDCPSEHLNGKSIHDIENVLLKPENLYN
Sequence (O60894 27-148 limits assumed, chain 2 of 2): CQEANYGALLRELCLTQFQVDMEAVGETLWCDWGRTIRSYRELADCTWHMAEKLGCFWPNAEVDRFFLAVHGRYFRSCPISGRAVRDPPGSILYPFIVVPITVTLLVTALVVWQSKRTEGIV
Experiment: cell-based or functional assay
reportedEndpoint: Fold-improvement over 4E4 Ab (IC50, cAMP assay) (fold)

>  <binder>
anti-CGRP receptor variant antibody 01, bivalent monoclonal antibody (antibody, human IgG1, lambda, N297G, V domains shown) VH: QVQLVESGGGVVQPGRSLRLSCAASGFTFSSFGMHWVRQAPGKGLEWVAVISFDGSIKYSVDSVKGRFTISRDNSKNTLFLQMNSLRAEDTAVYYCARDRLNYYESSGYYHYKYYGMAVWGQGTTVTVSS VL: QSVLTQPPSVSAAPGQKVTISCSGSYSNIGRYSVSWYQQLPGTAPKLLIYDNNKRPSGIPDRFSGSKSGTSATLGITGLQTGDEADYYCGTWDSRLSAVVFGGGTKLTVLG

>  <measurementUnits>
fold

>  <resultNumber>
3.9

$$$$
>  <binder>
4E4.2 parental antibody, bivalent monoclonal antibody (antibody, human IgG1, lambda, N297G, V domains shown) VH: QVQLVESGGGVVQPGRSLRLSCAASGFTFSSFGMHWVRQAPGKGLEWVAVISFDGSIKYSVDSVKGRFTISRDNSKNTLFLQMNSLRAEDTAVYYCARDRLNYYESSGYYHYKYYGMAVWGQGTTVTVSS VL: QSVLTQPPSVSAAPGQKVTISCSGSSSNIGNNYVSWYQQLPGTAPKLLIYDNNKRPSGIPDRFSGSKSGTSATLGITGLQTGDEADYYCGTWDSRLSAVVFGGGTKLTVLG

>  <measurementUnits>
fold

>  <resultNumber>
1.2

$$$$
>  <binder>
anti-CGRP receptor variant antibody 05, bivalent monoclonal antibody (antibody, human IgG1, lambda, N297G, V domains shown) VH: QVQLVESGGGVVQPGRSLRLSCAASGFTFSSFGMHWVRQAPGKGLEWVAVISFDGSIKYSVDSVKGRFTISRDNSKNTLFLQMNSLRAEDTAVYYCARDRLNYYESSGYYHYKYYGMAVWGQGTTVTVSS VL: QSVLTQPPSVSAAPGQKVTISCSGSFSNIGRSTVSWYQQLPGTAPKLLIYDNRWRAGGIPDRFSGSKSGTSATLGITGLQTGDEADYYCGTWDYQWKAVVFGGGTKLTVLG

>  <measurementUnits>
fold

>  <resultNumber>
2.7

$$$$
>  <binder>
anti-CGRP receptor variant antibody 06, bivalent monoclonal antibody (antibody, human IgG1, lambda, N297G, V domains shown) VH: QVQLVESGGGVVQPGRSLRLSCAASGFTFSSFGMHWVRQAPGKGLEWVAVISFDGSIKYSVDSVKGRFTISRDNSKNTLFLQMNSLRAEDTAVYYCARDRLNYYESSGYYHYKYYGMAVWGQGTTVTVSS VL: QSVLTQPPSVSAAPGQKVTISCSGSYSNIGRKSVSWYQQLPGTAPKLLIYDNNKRPSGIPDRFSGSKSGTSATLGITGLQTGDEADYYCGTWDSRLSAVVFGGGTKLTVLG

>  <measurementUnits>
fold

>  <resultNumber>
3.7

$$$$
>  <binder>
anti-CGRP receptor variant antibody 10, bivalent monoclonal antibody (antibody, human IgG1, lambda, N297G, V domains shown) VH: QVQLVESGGGVVQPGRSLRLSCAASGFFFGSYGMHWVRQAPGKGLEWVAVISFAGEIEHYVDSVKGRFTISRDNSKNTLFLQMNSLRAEDTAVYYCARDRLNYYESSGYYHYKYYGMAVWGQGTTVTVSS VL: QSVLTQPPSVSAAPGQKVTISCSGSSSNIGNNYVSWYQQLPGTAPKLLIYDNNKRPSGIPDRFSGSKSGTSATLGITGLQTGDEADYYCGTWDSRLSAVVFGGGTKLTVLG

>  <measurementUnits>
fold

>  <resultNumber>
1

$$$$
>  <binder>
anti-CGRP receptor variant antibody 08, bivalent monoclonal antibody (antibody, human IgG1, lambda, N297G, V domains shown) VH: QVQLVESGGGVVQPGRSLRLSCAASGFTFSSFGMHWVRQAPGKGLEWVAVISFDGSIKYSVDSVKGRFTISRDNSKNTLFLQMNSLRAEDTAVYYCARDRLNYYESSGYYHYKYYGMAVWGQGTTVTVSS VL: QSVLTQPPSVSAAPGQKVTISCSGSYSNIGWWPVSWYQQLPGTAPKLLIYDNNKRPSGIPDRFSGSKSGTSATLGITGLQTGDEADYYCGTWDSRLSAVVFGGGTKLTVLG

>  <measurementUnits>
fold

>  <resultNumber>
1.8

$$$$
>  <binder>
anti-CGRP receptor variant antibody 04, bivalent monoclonal antibody (antibody, human IgG1, lambda, N297G, V domains shown) VH: QVQLVESGGGVVQPGRSLRLSCAASGFTFSSFGMHWVRQAPGKGLEWVAVISFDGSIKYSVDSVKGRFTISRDNSKNTLFLQMNSLRAEDTAVYYCARDRLNYYRSFGYYGYHYYGMAVWGQGTTVTVSS VL: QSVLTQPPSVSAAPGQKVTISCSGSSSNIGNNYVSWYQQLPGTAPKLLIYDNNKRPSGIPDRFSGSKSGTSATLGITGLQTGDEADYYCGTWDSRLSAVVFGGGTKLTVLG

>  <measurementUnits>
fold

>  <resultNumber>
3.1

$$$$
>  <binder>
anti-CGRP receptor variant antibody 09, bivalent monoclonal antibody (antibody, human IgG1, lambda, N297G, V domains shown) VH: QVQLVESGGGVVQPGRSLRLSCAASGFTFSSFGMHWVRQAPGKGLEWVAVISFAGEIDYYVDSVKGRFTISRDNSKNTLFLQMNSLRAEDTAVYYCARDRLNYYESSGYYHYKYYGMAVWGQGTTVTVSS VL: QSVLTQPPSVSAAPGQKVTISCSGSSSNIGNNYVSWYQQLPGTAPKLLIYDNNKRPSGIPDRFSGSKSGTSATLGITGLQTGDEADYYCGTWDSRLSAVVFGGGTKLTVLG

>  <measurementUnits>
fold

>  <resultNumber>
0.6

$$$$
>  <binder>
anti-CGRP receptor variant antibody 02, bivalent monoclonal antibody (antibody, human IgG1, lambda, N297G, V domains shown) VH: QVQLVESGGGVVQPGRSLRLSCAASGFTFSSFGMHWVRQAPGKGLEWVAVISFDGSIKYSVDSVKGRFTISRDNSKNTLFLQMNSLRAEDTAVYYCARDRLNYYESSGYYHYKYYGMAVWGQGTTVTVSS VL: QSVLTQPPSVSAAPGQKVTISCSGSRSNIGIKAVSWYQQLPGTAPKLLIYDNNKRPSGIPDRFSGSKSGTSATLGITGLQTGDEADYYCGTWDSRLSAVVFGGGTKLTVLG

>  <measurementUnits>
fold

>  <resultNumber>
4.6

$$$$
>  <binder>
anti-CGRP receptor variant antibody 07, bivalent monoclonal antibody (antibody, human IgG1, lambda, N297G, V domains shown) VH: QVQLVESGGGVVQPGRSLRLSCAASGFYFMTYGMHWVRQAPGKGLEWVAVISFDGSIKYSVDSVKGRFTISRDNSKNTLFLQMNSLRAEDTAVYYCARDRLNYYESSGYYHYKYYGMAVWGQGTTVTVSS VL: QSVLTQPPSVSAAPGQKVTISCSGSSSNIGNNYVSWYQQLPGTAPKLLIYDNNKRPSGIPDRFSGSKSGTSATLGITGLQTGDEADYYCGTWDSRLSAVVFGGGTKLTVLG

>  <measurementUnits>
fold

>  <resultNumber>
1.9

$$$$
